Items are presented alongside their recorded MIC E. coli (UB 1005).
Test system: E. coli
Test: MIC, broth dilution in LB-S
Type: cell-based
Settings: E. coli (UB 1005); Table 6
Ends that are not written are not given here.
Entry rule: numbers only, all in µg/mL.

# count of solved cases: 3
KWKSFIKKLTSAAKKVVTTAKPLISS [MBI 26]
1.1
KWKKFIKELQKVLAPGGLLSNIVTSL [compound 493]
5
KWKSFIKNLEKVLKPGGLLSNIVTSL [compound 490]
1

# sequence KWKSFIKNLEKVLKKGPILANLVSIV [compound 491] ; its MIC E. coli (UB 1005) = 2

----------
Tested on: S. aureus
Test: MIC, broth dilution in LB-S
Assay type: cell-based
Conditions: K147; MBI 29 and MBI21 derivatives
Ends that are not written are not given here.
MIC K147 values by entry
The response must be a number in mg/L with no trailing unit.

// MIC K147 value for KWKLFKKKGTGAVLTVLTTGLPALIS [MBI29A3] : 32

Briefly, MIC K147 measured for KWKSFIKNLTKVLKKVVTTALPALIS [MBI29A2] : 16

For reference, reported MIC K147 for KWKSFIKKLTSVLKKVVTTALPALIS [MBI29A1] stands at 16

----------
Test system: C610
Assay: MIC, broth dilution in LB-S
Assay type: cell-based, S. typhimurium
Conditions: MBI 29 and MBI21 derivatives
Ends that are not written are not given here.
PROPERTY MEASURED: MIC C610 (µg/mL)
API: value field is a number in µg/mL; no unit string.

Solved cases below.
KWWRRALQGLKTAGPAIQSVLNK [MBI21A2]
16
KWKSFIKKLTSVLKKVVTTALPALIS [MBI29A1]
8
KWKLFKKKGTGAVLTVLTTGLPALIS [MBI29A3]
8
KKSFFKKLTSVASSVLS [MBI21A14]
128
KKWWRRVLSGLKTAGPAIQSVLNK [MBI21A1]
16

# evaluate next
The recorded MIC C610 for KWKSFIKNLTKVLKKVVTTALPALIS [MBI29A2] is 8

----------
Tested on: E. coli
Assay: MIC, broth dilution in LB-S
Format: cell-based
Conditions: E. coli 0111:B4; MBI 29 and MBI21 derivatives
Ends that are not written are not given here.
PROPERTY MEASURED: MIC E. coli 0111:B4 (µg/mL)
Answer in µg/mL, number only, no unit symbol.

Sample answers from the record:
KWWRRALQGLKTAGPAIQSVLNK [MBI21A2]
32
KWKSFIKNLTKVLKKVVTTALPALIS [MBI29A2]
8
KKWWRRVLSGLKTAGPAIQSVLNK [MBI21A1]
16
KWKLFKKKGTGAVLTVLTTGLPALIS [MBI29A3]
8

Reported MIC E. coli 0111:B4 ( KWKSFIKKLTSVLKKVVTTALPALIS [MBI29A1] ) = 4

----------
Reported MIC E. faecalis values are given for each entry in this list.
Test system: E. faecalis
Assay: MIC, broth dilution in LB-S
Assay type: cell-based
Details: MBI 29 and MBI21 derivatives
Ends that are not written are not given here.

KKWWRRVLSGLKTAGPAIQSVLNK [MBI21A1]
>128 µg/mL
KWKSFIKNLTKVLKKVVTTALPALIS [MBI29A2]
64 µg/mL
KWKLFKKKGTGAVLTVLTTGLPALIS [MBI29A3]
>128 µg/mL
KKSFFKKLTSVASSVLS [MBI21A14]
>128 µg/mL
KWKSFIKKLTSVLKKVVTTALPALIS [MBI29A1]
64 µg/mL

Okay, next one:
get_value(item= KWWRRALQGLKTAGPAIQSVLNK [MBI21A2] , readout=MIC E. faecalis) returns >128 µg/mL
